biological target: p-Akt3 in WM115 cells (Homo sapiens); construct: SureFire assays to detect cellular p-Akt1, p-Akt2 and p-Akt3 levels in WM115 cells (Akt2/3) and LNCaP cells (Akt1); endogenous in cells; host or cells: WM115 (ECACC 91061232), insulin-stimulated; test: Phospho-Akt cellular SureFire assay, p-Akt3 in WM115 cells; format: cell-based; conditions: insulin stimulated, read-out: Biological Assay 2 IC50 (nM) Akt3 WM115
Listed molecules paired with reported log10 of IC50
reportedEndpoint: log10 of IC50 (log10 of the value in nM)

>>> quantitativereadout("CC(=O)N(C)[C@H]1CC[C@H](CC(=O)Nc2cc(-c3ccccc3)c(-c3ccc(C(C)(C)N)cc3)nn2)CC1")
1.86
>>> quantitativereadout("CC(=O)N(C)[C@H]1CC[C@H](CC(=O)Nc2cnc(-c3ccc([C@H](C)N)cc3)c(-c3ccccc3)c2)CC1")
2.48
>>> quantitativereadout("C[C@]1(O)C[C@@](N)(c2ccc(-c3cnc(NC(=O)C[C@H]4CC[C@H](N5CCCC5=O)CC4)cc3-c3ccccc3)cc2)C1")
1.15
>>> quantitativereadout("NC1(c2ccc(-c3ncc(NC(=O)C(F)C4CCN(S(=O)(=O)C5CC5)CC4)cc3-c3ccccc3)cc2)CCC1 (stereo not shown)")
2.34
>>> quantitativereadout("CC(=O)N(C)[C@H]1CC[C@H](CC(=O)Nc2cc(-c3ccccc3)c(-c3ccc([C@]4(N)C[C@H](F)C4)cc3)cn2)CC1")
2.40
>>> quantitativereadout("NC1(c2ccc(-c3ncc(NC(=O)C[C@H]4CC[C@H](N5CCOCC5)CC4)cc3-c3ccsc3)cc2)CCC1")
1.96
>>> quantitativereadout("CC(C)(N)c1ccc(-c2ncc(NC(=O)C[C@H]3CC[C@H](NC(=O)C4CC4)CC3)cc2-c2ccccc2)cc1")
2.30
>>> quantitativereadout("CCC(=O)N(C)[C@H]1CC[C@H](CC(=O)Nc2cnc(-c3ccc(C(C)(C)N)cc3)c(-c3ccccc3)c2)CC1")
2.04
>>> quantitativereadout("CC(C)(N)c1ccc(-c2nnc(NC(=O)C[C@H]3CC[C@H](N4CCOC4=O)CC3)cc2-c2ccsc2)cc1")
2.18
>>> quantitativereadout("CCC(=O)N(C)[C@H]1CC[C@H](CC(=O)Nc2cc(-c3ccsc3)c(-c3ccc([C@]4(N)C[C@](C)(O)C4)cc3)nn2)CC1")
1.11
>>> quantitativereadout("CC(=O)N(C)[C@H]1CC[C@H](CC(=O)Nc2cc(-c3ccsc3)c(-c3ccc(C4(N)CCC4)cc3)nn2)CC1")
1.61
>>> quantitativereadout("CC(=O)N(C(C)C)[C@H]1CC[C@H](CC(=O)Nc2cnc(-c3ccc(C(C)(C)N)cc3)c(-c3ccccc3)c2)CC1")
2.64
>>> quantitativereadout("COC(=O)N(C)[C@H]1CC[C@H](CC(=O)Nc2cc(-c3ccsc3)c(-c3ccc([C@]4(N)C[C@](C)(O)C4)cc3)cn2)CC1")
1.76

====

target: p-Akt3 in WM115 cells (Homo sapiens); construct: SureFire assays to detect cellular p-Akt1, p-Akt2 and p-Akt3 levels in WM115 cells (Akt2/3) and LNCaP cells (Akt1); endogenous in cells; host or cells: WM115 (ECACC 91061232), insulin-stimulated; assay: Phospho-Akt cellular SureFire assay, p-Akt3 in WM115 cells; assay type: cell-based; conditions: insulin stimulated, read-out: Biological Assay 2 IC50 (nM) Akt3 WM115
Kindly apply the following: fulfilled if IC50 is less than 200 nM, not fulfilled in every other case.

>>> category("CN(C(=O)C1CC1)[C@H]1CC[C@H](CC(=O)Nc2cc(-c3ccccc3)c(-c3ccc(C(C)(C)N)cc3)nn2)CC1 [Example A86]")
"fulfilled"
>>> category("Cc1nncn1[C@H]1CC[C@H](CC(=O)Nc2cnc(-c3ccc(C4(N)CCC4)cc3)c(-c3ccccc3)c2)CC1 [Example A17]")
"not fulfilled"
>>> category("COC(=O)N(C)[C@H]1CC[C@H](CC(=O)Nc2cc(-c3ccccc3)c(-c3ccc(C4(N)CCC4)cc3)nn2)CC1 [Example A55]")
"not fulfilled"
>>> category("CCC(=O)N(C)[C@H]1CC[C@H](CC(=O)Nc2cc(-c3ccccc3)c(-c3ccc(C4(N)CC4)c(F)c3)nn2)CC1 [Example A103]")
"not fulfilled"
>>> category("NC1(c2ccc(-c3cnc(NC(=O)C[C@H]4CC[C@H](N5CCCC5=O)CC4)cc3-c3ccccc3)cc2)CCC1 [Example A71]")
"fulfilled"
>>> category("NC1(c2ccc(-c3cnc(NC(=O)C[C@H]4CC[C@H](N5CCOC5=O)CC4)cc3-c3ccccc3)cc2)CC1 [Example A51]")
"fulfilled"
>>> category("CCN(C(=O)OC)[C@H]1CC[C@H](CC(=O)Nc2cc(-c3ccccc3)c(-c3ccc([C@]4(N)C[C@](C)(O)C4)cc3)nn2)CC1 [Example 129]")
"fulfilled"

====

target: Akt2 (Homo sapiens, UniProt P31751); construct: unspecified tag, removed (detagged) (cleaved yes); purchased SignalChem and Proteros (Akt2); Merck Millipore (PDK1) 14-452 (PDK1); none given for Akt2; assay: Akt activation assay (PDK1-mediated activation, LANCE Ultra crosstide TR-FRET), Akt2; type: biochemical; settings: read-out: Biological Assay 1 IC50 (nM) Akt2
Sequence (P31751 whole entry): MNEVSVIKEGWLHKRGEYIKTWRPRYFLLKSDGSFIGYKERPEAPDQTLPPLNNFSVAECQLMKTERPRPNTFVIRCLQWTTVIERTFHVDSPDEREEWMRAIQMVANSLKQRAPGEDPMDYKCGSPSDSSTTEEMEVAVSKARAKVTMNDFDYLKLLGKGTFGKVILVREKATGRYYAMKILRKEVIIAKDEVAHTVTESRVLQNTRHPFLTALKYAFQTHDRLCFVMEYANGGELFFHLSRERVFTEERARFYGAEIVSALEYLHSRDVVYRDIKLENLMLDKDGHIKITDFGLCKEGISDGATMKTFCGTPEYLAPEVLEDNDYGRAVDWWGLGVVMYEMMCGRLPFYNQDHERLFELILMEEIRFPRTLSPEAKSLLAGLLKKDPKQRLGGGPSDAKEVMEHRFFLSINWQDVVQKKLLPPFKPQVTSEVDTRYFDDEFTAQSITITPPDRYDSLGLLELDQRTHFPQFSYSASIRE
Kindly apply the following: t if IC50 is less than 500 nM, f in every other case.

>>> category("N[C@]1(c2ccc(-c3nnc(NC(=O)C[C@H]4CC[C@H](N5CCCC5=O)CC4)cc3-c3ccccc3)cc2)C[C@@H](F)C1 [Example 74]")
"t"
>>> category("COC(=O)N(C)[C@H]1CC[C@H](CC(=O)Nc2cnc(-c3ccc(C4(N)CCC4)cc3)c(-c3ccsc3)c2)CC1 [Example A68]")
"f"
>>> category("COC(=O)N(C)[C@H]1CC[C@H](CC(=O)Nc2cnc(-c3ccc(C(C)(C)N)cc3)c(-c3ccsc3)c2)CC1 [Example A67]")
"f"
>>> category("COC(=O)N(C)[C@H]1CC[C@H](C(F)C(=O)Nc2cnc(-c3ccc(C4(N)CCC4)cc3)c(-c3ccccc3)c2)CC1 (relative stereo) [Example 52]")
"f"
>>> category("CC(C)(C(=O)N[C@H]1CC[C@H](CC(=O)Nc2cnc(-c3ccc(C4(N)CCC4)cc3)c(-c3cccnc3)c2)CC1)C(F)(F)F [Example 20]")
"f"
>>> category("CC(=O)N(C)[C@H]1CC[C@H](CC(=O)Nc2cc(-c3ccsc3)c(-c3ccc(C4(N)CCC4)cc3)nn2)CC1 [Example A97]")
"t"

====

target: Akt2 (Homo sapiens); construct: unspecified tag, removed (detagged) (cleaved yes); purchased SignalChem and Proteros (Akt2); Merck Millipore (PDK1) 14-452 (PDK1); none given for Akt2; assay: Akt activation assay (PDK1-mediated activation, LANCE Ultra crosstide TR-FRET), Akt2; format: biochemical; conditions: read-out: Biological Assay 1 IC50 (nM) Akt2
Listed compounds paired with reported IC50
reportedEndpoint: IC50 (nM)

>>> quantitativereadout("CCC(=O)N(C)[C@H]1CC[C@H](CC(=O)Nc2cc(-c3ccsc3)c(-c3ccc([C@]4(N)C[C@](C)(O)C4)cc3)nn2)CC1")
160
>>> quantitativereadout("CC(C)(N)c1ccc(-c2ncc(NC(=O)C[C@H]3CC[C@H](N4CCOC4=O)CC3)cc2-c2ccccc2)cc1")
4500
>>> quantitativereadout("CCC(=O)N(C)[C@H]1CC[C@H](CC(=O)Nc2cc(-c3ccccc3)c(-c3ccc(C4(N)CC4)c(F)c3)nn2)CC1")
2300

====

target: Akt3 (Homo sapiens, UniProt Q9Y243); construct: unspecified tag, removed (detagged) (cleaved yes); purchased SignalChem and Proteros (Akt3); Merck Millipore (PDK1) 14-452 (PDK1); none given for Akt3; experiment: Akt activation assay (PDK1-mediated activation, LANCE Ultra crosstide TR-FRET), Akt3; format: biochemical; settings: read-out: Biological Assay 1 IC50 (nM) Akt3
Sequence (Q9Y243 whole entry): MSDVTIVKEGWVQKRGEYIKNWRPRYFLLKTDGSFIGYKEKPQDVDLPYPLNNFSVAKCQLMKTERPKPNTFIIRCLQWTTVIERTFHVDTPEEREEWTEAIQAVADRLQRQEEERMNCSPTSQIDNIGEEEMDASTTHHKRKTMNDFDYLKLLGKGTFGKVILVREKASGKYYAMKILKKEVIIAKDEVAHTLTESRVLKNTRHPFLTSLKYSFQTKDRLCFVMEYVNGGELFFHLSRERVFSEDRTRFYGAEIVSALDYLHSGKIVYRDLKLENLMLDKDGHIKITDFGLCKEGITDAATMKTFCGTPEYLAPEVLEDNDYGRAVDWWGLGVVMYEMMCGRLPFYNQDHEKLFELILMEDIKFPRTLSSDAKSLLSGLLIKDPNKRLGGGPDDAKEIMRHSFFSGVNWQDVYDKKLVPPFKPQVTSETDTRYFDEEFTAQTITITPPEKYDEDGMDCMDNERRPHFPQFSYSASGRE
reportedEndpoint: IC50 (nM)

>>> quantitativereadout("CC(C)(C(=O)N[C@H]1CC[C@H](CC(=O)Nc2cnc(-c3ccc(C4(N)CCC4)cc3)c(-c3cccnc3)c2)CC1)C(F)(F)F")
6800
>>> quantitativereadout("CN(C(=O)C1(C)CC1)[C@H]1CC[C@H](CC(=O)Nc2cnc(-c3ccc(C(C)(C)N)cc3)c(-c3ccccc3)c2)CC1")
1400
>>> quantitativereadout("COC(=O)N(C(C)C)[C@H]1CC[C@H](CC(=O)Nc2cnc(-c3ccc(C4(N)CCC4)cc3)c(-c3ccccc3)c2)CC1")
190
>>> quantitativereadout("CN([C@H]1CC[C@H](CC(=O)Nc2cnc(-c3ccc(C(C)(C)N)cc3)c(-c3ccccc3)c2)CC1)S(C)(=O)=O")
560
>>> quantitativereadout("CCC(=O)N(CC)[C@H]1CC[C@H](CC(=O)Nc2cc(-c3ccccc3)c(-c3ccc([C@]4(N)C[C@](C)(O)C4)cc3)cn2)CC1")
24
>>> quantitativereadout("CN(C(=O)C1CC1)[C@H]1CC[C@H](CC(=O)Nc2cc(-c3ccccc3)c(-c3ccc([C@]4(N)C[C@H](F)C4)cc3)nn2)CC1")
16
>>> quantitativereadout("CCN(C(=O)OC)[C@H]1CC[C@H](CC(=O)Nc2cnc(-c3ccc([C@]4(N)C[C@](C)(O)C4)cc3)c(-c3ccccc3)c2)CC1")
5
>>> quantitativereadout("CC(=O)N(C)[C@H]1CC[C@H](CC(=O)Nc2cnc(-c3ccc(C4(N)CC4)cc3)c(-c3ccccc3)c2)CC1")
84
>>> quantitativereadout("CCC(=O)N(CC)[C@H]1CC[C@H](CC(=O)Nc2cc(-c3ccccc3)c(-c3ccc([C@]4(N)C[C@](C)(O)C4)cc3)nn2)CC1")
8
>>> quantitativereadout("C[C@H](N)c1ccc(-c2ncc(NC(=O)C[C@H]3CC[C@H](NC(=O)C(C)(C)C(F)(F)F)CC3)cc2-c2ccccc2)cc1")
4600
>>> quantitativereadout("COC(=O)N(C)[C@H]1CC[C@H](CC(=O)Nc2cc(-c3ccsc3)c(-c3ccc(C(C)(C)N)cc3)nn2)CC1")
220
>>> quantitativereadout("CC(=O)N(C)[C@H]1CC[C@H](CC(=O)Nc2cnc(-c3ccc([C@H](C)N)cc3)c(-c3ccccc3)c2)CC1")
350
>>> quantitativereadout("CC(=O)N(C)[C@H]1CC[C@H](CC(=O)Nc2cnc(-c3ccc(C(C)(C)N)cc3)c(-c3ccsc3)c2)CC1")
720
